Assay: self-splicing fitness, log relative to wild type (ln ratio); higher = more splicing; Tetrahymena group I intron in knt gene, E. coli kanamycin selection, DiMSum; sequences stand for … in CUCUCU…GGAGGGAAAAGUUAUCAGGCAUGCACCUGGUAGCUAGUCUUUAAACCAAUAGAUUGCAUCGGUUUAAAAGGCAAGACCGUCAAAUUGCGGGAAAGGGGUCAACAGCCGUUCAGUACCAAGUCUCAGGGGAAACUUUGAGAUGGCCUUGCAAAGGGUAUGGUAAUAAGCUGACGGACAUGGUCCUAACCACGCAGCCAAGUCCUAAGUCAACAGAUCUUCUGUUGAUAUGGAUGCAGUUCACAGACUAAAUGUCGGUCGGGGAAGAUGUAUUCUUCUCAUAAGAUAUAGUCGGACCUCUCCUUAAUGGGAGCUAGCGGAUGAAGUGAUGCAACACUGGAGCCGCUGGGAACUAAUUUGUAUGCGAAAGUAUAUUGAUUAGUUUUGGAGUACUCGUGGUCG;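 note: selection with 25 µg/mL kanamycin versus none on LB agar overnight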
Settings: 37 °C
MEASUREMENT TYPE: self-splicing fitness (ln)
Please state the value as a number alone, without comment.

Tell me the measured self-splicing fitness (ln) of GCAAAGCAAUAUUACGCAGA , please. -2.76

// same read-out, input: GGUUAGCAAUAUUACGCCCA -1.13

Also, AACUAGCAAUAUUACGUUAA please. -1.71

How about this sequence: CAUUAGCAAUAUUACGGACA -1.22

What do we get for UAUUAGCAAUAUUACGGGCG ? 0.185

Moving on to CUCCAGCAAUAUUACGUAUU -3.21

# iterate: CUCUAGCAAUAUUACGCGUU -2.14

Check CCCCAGCAAUAUUACGACGU too. -2.9

Request: UUCCAGCAAUAUUACGAUGU -2.22

Next sequence: GGAUAGCAAUAUUACGAGAU 0.361

Also, UGAUAGCAAUAUUACGUAUU please. -2.34

Same read-out for AUUAAGCAAUAUUACGUGCC ? -1.07

And what about the sequence GCAGAGCAAUAUUACGCUAG ? -1.79

Repeat with UCAAAGCAAUAUUACGUGGU -2.19

Quick one: GCUAAGCAAUAUUACGUGUU -0.774

Can you handle GCACAGCAAUAUUACGGCUU next? -0.0629

Another sequence: AAGGAGCAAUAUUACGUACU -0.189

Would you kindly repeat that for CUAAAGCAAUAUUACGGAUA ? -2.36
